Hi there, I'd appreciate the recorded pKd for every entry that follows.
system-tested: polyclonal human IgG
experiment-notes: Adsorption isotherm of peptoid affinity resins against polyclonal human IgG
condition-set: affinity constant from hyperbola fit of adsorption isotherm; peptoid conjugated to chromatographic resin; IgG in PBS, 30 minutes; read-out: Kd × 10^−6
*1 amine or outer side, *2 acyl side, *3 side chain or, on linkers, in order; H or OH if unused. Where a SMILES comes first, the peptide text is derived from it. [ ]: non-standard residue; d: D form. ξ: configuration not given here. Gly(N(CH2)2(3-indolyl)) = O=C(O)CNCCc1c[nH]c2ccccc12; NGly(CH2(3-pyridyl)) = O=C(O)CNCc1cccnc1; ξW = NC(Cc1c[nH]c2ccccc12)C(=O)O; Gly(N(CH2)3NH2) = NCCCNCC(=O)O; Cysteamide = C(CS[*:3])N[*:1]; ξCit = NC(=O)NCCCC(N)C(=O)O; ξH = NC(Cc1c[nH]cn1)C(=O)O; NPrGly = CCCNCC(=O)O
One number for each entry, as −log10 of the molar value.

CCCN(CC(=O)NCCS)C(=O)CN(CCc1c[nH]c2ccccc12)C(=O)CNC(=O)CN(CCCN)C(=O)C(Cc1c[nH]c2ccccc12)NC(=O)CNCc1cccnc1 (centres unmarked) [Ligand 16-83-3] (H-[NGly(CH2(3-pyridyl))][ξW][Gly(N(CH2)3NH2)]G[Gly(N(CH2)2(3-indolyl))][NPrGly]-Cysteamide) : 5.14
CCCN(CC(=O)NCCS)C(=O)CN(CCc1c[nH]c2ccccc12)C(=O)CNC(=O)CN(CCCN)C(=O)CN(CCc1c[nH]c2ccccc12)C(=O)C(N)Cc1c[nH]cn1 (centres unmarked) [Ligand 16-83-5] (H-[ξH][Gly(N(CH2)2(3-indolyl))][Gly(N(CH2)3NH2)]G[Gly(N(CH2)2(3-indolyl))][NPrGly]-Cysteamide) : 5.19
NC(=O)NCCCC(NC(=O)CN(CCc1c[nH]c2ccccc12)C(=O)CNCc1cccnc1)C(=O)NC(CCCNC(N)=O)C(=O)NCCS (centres unmarked) : 5.19
CCCN(CC(=O)NCCS)C(=O)CN(CCc1c[nH]c2ccccc12)C(=O)CNC(=O)C(CCCNC(N)=O)NC(=O)CN(CCc1c[nH]c2ccccc12)C(=O)[C@@H](N)Cc1c[nH]cn1 (some centres unmarked) [Ligand 12-65-2] (H-H[Gly(N(CH2)2(3-indolyl))][ξCit]G[Gly(N(CH2)2(3-indolyl))][NPrGly]-Cysteamide) : 4.82
NC(=O)NCCCC(N)C(=O)N(CCc1c[nH]c2ccccc12)CC(=O)N(CC(=O)N(CCc1c[nH]c2ccccc12)CC(=O)NCCS)Cc1cccnc1 (centres unmarked) [Ligand 16-83-9] (H-[ξCit][Gly(N(CH2)2(3-indolyl))][NGly(CH2(3-pyridyl))][Gly(N(CH2)2(3-indolyl))]-Cysteamide) : 5.31

Dear colleague, could you send me pKd for each of the items below? Thanks.
1. NC(=O)NCCCC(N)C(=O)N(CC(=O)N(CCc1c[nH]c2ccccc12)CC(=O)NCC(=O)N(CCc1c[nH]c2ccccc12)CC(=O)NCCS)Cc1cccnc1 (centres unmarked) [Ligand 12-65-5] (H-[ξCit][NGly(CH2(3-pyridyl))][Gly(N(CH2)2(3-indolyl))]G[Gly(N(CH2)2(3-indolyl))]-Cysteamide)
2. NC(=O)NCCCC(NC(=O)CN(CCc1c[nH]c2ccccc12)C(=O)CNCc1cccnc1)C(=O)N(CCc1c[nH]c2ccccc12)CC(=O)NCCS (centres unmarked) [Ligand 16-81-4] (H-[NGly(CH2(3-pyridyl))][Gly(N(CH2)2(3-indolyl))][ξCit][Gly(N(CH2)2(3-indolyl))]-Cysteamide)

[out]
1: 5.44; 2: 5.54

[in] Quick check: pKd of NC(=O)NCCCC(NC(=O)CNCCc1c[nH]c2ccccc12)C(=O)N(CCc1c[nH]c2ccccc12)CC(=O)N(CC(=O)NCCS)Cc1cccnc1 (centres unmarked) [Ligand 16-83-7] (H-[Gly(N(CH2)2(3-indolyl))][ξCit][Gly(N(CH2)2(3-indolyl))][NGly(CH2(3-pyridyl))]-Cysteamide) ?
[out] 5.11
